run.description: Displacement of [3H]methyllycaconitine from chimeric alpha-7nAChR Y168A mutant/5HT3A receptor in tsA201 cells
Type: cell-based, Homo sapiens
parameter: Ki (nM)
Give the number; nM is assumed, so skip it.

# example entries with known answers
- compound: "O=[N+]([O-])c1ccc(C[N+]23CC[C@@H]4[C@@H]5[C@@H]6[C@@H](OCC=C(C2)[C@@H]6C[C@@H]43)N2c3ccccc3[C@@]34CC[N+]6(Cc7ccc([N+](=O)[O-])cc7)CC7=CCO[C@H]([C@@H]([C@H]23)[C@H]7C[C@@H]46)N5c2ccccc2)cc1.[Br-].[Br-] (stereo partly specified)"
  Ki [nM]: 34
- compound: "CCN1C[C@]2(COC(=O)c3ccccc3N3C(=O)C[C@H](C)C3=O)CC[C@H](OC)[C@@]34[C@@H]5C[C@H]6[C@H](OC)[C@@H]5[C@](O)(C[C@@H]6OC)[C@](O)([C@@H](OC)[C@H]23)[C@@H]14"
  Ki [nM]: 1.9
- compound: "C[N+](C)(C)Cc1c2n(c3ccccc13)Cc1c(C[N+](C)(C)C)c3ccccc3n1C2.[I-].[I-]"
  Ki [nM]: 5100
- compound: "C1=CC([N+]23CC[C@@H]4[C@@H]5[C@@H]6[C@@H](OCC=C(C2)[C@@H]6C[C@@H]43)N2c3ccccc3[C@@]34CC[N+]6(C7C=CCCC7)CC7=CCO[C@H]([C@@H]([C@H]23)[C@H]7C[C@@H]46)N5c2ccccc2)CCC1.[Br-].[Br-] (stereo partly specified)"
  Ki [nM]: 1100
- compound: "C[N+]12CC[C@@H]3[C@@H]4/C(=C\\N5c6ccccc6[C@@]67CC[N+]8(C)CC9=CCO[C@H]([C@@H]([C@H]56)[C@H]9C[C@@H]78)N4c4ccccc4)[C@@H](C[C@@H]31)/C(=C\\CO)C2.[I-].[I-] (stereo partly specified)"
  Ki [nM]: 1300

Exam item: Entry C[N+]12CC[C@@H]3[C@@H]4[C@@H]5[C@@H](OCC=C(C1)[C@@H]5C[C@@H]32)N1c2ccccc2[C@@]23CC[N+]5(C)CC6=CCO[C@H]([C@@H]([C@H]12)[C@H]6C[C@@H]35)N4c1ccccc1.[I-].[I-] (stereo partly specified) has what Ki?
Marked response: 310

---

tested.target: Neuronal acetylcholine receptor subunit alpha-7 (Homo sapiens)
Sequence (P36544 whole entry): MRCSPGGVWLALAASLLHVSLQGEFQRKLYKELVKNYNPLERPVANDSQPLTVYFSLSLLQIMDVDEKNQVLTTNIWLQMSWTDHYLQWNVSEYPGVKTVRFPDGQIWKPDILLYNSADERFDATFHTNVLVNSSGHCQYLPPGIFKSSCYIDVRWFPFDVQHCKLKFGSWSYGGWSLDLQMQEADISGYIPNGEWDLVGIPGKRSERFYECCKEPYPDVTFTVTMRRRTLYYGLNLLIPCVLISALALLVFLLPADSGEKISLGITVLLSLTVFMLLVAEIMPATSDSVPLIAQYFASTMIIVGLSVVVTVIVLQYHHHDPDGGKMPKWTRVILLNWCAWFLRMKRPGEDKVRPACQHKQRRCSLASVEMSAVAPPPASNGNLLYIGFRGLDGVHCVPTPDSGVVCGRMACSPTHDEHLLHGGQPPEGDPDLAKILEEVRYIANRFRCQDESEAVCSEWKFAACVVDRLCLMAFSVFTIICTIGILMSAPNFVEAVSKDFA
run.description: Displacement of [3H]methyllycaconitine from alpha7 nAChR in tsA201 cells co-expressed with Ric3
Assay type: cell-based
condition.info: read-out: pKi (converted)
# key: entry, value: log10(Ki)
All values: base-10 log of Ki in nM.

- molecule: "COc1ccc(C[N+]23CC[C@@H]4[C@@H]5/C(=C\\N6c7ccccc7[C@@]78CC[N+]9(Cc%10ccc(OC)c(OC)c%10)CC%10=CCO[C@H]([C@@H]([C@H]67)[C@H]%10C[C@@H]89)N5c5ccccc5)[C@@H](C[C@@H]42)/C(=C\\CO)C3)cc1OC.[Cl-].[Cl-] (stereo partly drawn)"
  test.value: 2.30
- molecule: "O=[N+]([O-])c1ccc(C[N+]23CCC4[C@@H]5/C(=C\\N6c7ccccc7[C@@]78CC[N+]9(Cc%10ccc([N+](=O)[O-])cc%10)CC%10=CCO[C@H]([C@@H]([C@H]67)[C@H]%10C[C@@H]89)N5c5ccccc5)[C@@H](C[C@@H]42)/C(=C\\CO)C3)cc1.[Br-].[Br-] (stereo partly drawn)"
  test.value: 2.00
- molecule: "CN(C)Cc1c2n(c3ccccc13)Cc1c(CN(C)C)c3ccccc3n1C2"
  test.value: 3.70
- molecule: "C1=C2C[N+]3(Cc4ccccc4)CC[C@@H]4[C@@H]5[C@H]([C@@H](OC1)N1c6ccccc6[C@@]67CC[N+]8(Cc9ccccc9)CC9=CCO[C@H]([C@@H]([C@H]16)[C@H]9C[C@@H]78)N5c1ccccc1)[C@H]2C[C@@H]43.[Br-].[Br-] (stereo partly drawn)"
  test.value: 2.40

Exam item: Reported log10(Ki) for `C[N+](C)(C)Cc1c2n(c3ccccc13)Cc1c(C[N+](C)(C)C)c3ccccc3n1C2.[I-].[I-]` : what is it?
Marked response: 3.10

Exam item: Which value of log10(Ki) has been reported for C=CC[N+]12CC[C@@]34c5ccccc5N5/C=C6/[C@H]7C[C@H]8[C@@]9(CC[N@@+]8(CC=C)C/C7=C/CO)c7ccccc7N(/C=C(/[C@@H](C[C@@H]31)/C(=C\CO)C2)[C@H]54)[C@@H]69 (stereo partly drawn) in the records?
Marked response: 3.00

Exam item: Suppose we examine the molecule OC/C=C1/C[N+]2(C3C=CCCC3)CC[C@@H]3[C@@H]4/C(=C\N5c6ccccc6[C@@]67CC[N+]8(C9C=CCCC9)CC9=CCO[C@H]([C@@H]([C@H]56)[C@H]9C[C@@H]78)N4c4ccccc4)[C@H]1C[C@@H]32.[Br-].[Br-] (stereo partly drawn) ; what log10(Ki) value has been reported?
Marked response: 2.40

Exam item: Name the recorded log10(Ki) for C=CC[N+]12CC[C@@H]3[C@@H]4[C@@H]5[C@@H](OCC=C(C1)[C@@H]5C[C@@H]32)N1c2ccccc2[C@@]23CCN5CC6=CCO[C@H]([C@@H]([C@H]12)[C@H]6C[C@H]53)N4c1ccccc1.[Br-] (stereo partly drawn) .
Marked response: 1.70
